- target-entity: Recombinant STAT3 protein (STAT3(G127-I722)) (Homo sapiens, UniProt P40763)
- Construct: Recombinant STAT3 protein (STAT3(G127-I722))
- Sequence (P40763 127-722): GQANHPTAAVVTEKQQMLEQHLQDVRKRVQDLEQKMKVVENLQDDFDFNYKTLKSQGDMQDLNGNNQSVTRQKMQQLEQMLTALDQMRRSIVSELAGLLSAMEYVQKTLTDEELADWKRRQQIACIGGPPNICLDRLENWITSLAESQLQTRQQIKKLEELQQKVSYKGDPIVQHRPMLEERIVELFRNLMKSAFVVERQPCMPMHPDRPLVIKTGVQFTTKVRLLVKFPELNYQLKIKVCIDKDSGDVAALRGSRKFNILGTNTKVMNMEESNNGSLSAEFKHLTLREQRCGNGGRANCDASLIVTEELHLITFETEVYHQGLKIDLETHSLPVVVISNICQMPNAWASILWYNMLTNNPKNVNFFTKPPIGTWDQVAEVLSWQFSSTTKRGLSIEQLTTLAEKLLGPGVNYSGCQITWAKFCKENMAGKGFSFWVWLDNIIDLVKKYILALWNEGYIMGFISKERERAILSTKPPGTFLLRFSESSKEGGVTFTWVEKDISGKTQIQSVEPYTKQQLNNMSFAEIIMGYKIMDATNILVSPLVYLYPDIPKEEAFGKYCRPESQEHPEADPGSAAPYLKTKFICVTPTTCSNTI
- protocol-description: STAT3 Fluorescence Polarization (FP) Assay
- measurement-context: STAT3(G127-I722) 25 nM, probe 5-FAM-GpYLPQTV-NH2 2 nM, 45-minute incubation
pIC50: −log10 of the molar value.
observation-type: pIC50

CC(=O)N1CC[C@H]2CC[C@@H](C(=O)N3CC(c4ccn(C)c(=O)c4)CC34CC4)N2C(=O)[C@@H](NC(=O)c2ccc3ccc(C(F)P(=O)(O)O)cc3c2)C1 (some centres unmarked)    < 5.00

// fetch pIC50; item: Cc1ccc2onc(C(=O)N3CC[C@H]4CC[C@@H](C(=O)N5C[C@H](c6ccn(C)c(=O)c6)CC56CC6)N4C(=O)[C@@H](NC(=O)c4ccc5ccc(C(F)(F)P(=O)(O)O)cc5c4)C3)c2c1 ; system: Recombinant STAT3 protein (STAT3(G127-I722)) (Homo sapiens, UniProt P40763) 5.00 to 6.00

For Recombinant STAT3 protein (STAT3(G127-I722)) (Homo sapiens, UniProt P40763), give pIC50 of the listed compound: C[C@@H](CC(=O)N1CC[C@H]2CC[C@@H](C(=O)N3CCCC3)N2C(=O)[C@@H](NC(=O)c2cc3cc(C(F)(F)P(=O)(O)O)ccc3s2)C1)c1ccccc1 6.00 to 7.00

Tell me its pIC50 on Recombinant STAT3 protein (STAT3(G127-I722)) (Homo sapiens, UniProt P40763): CC(=O)N1CC[C@H]2CC[C@@H](C(=O)N3CC(C(=O)N4CCOCC4)C3)N2C(=O)[C@@H](NC(=O)c2cc3cc(C(F)(F)P(=O)(O)O)ccc3s2)C1 6.00 to 7.00

Report its pIC50 with Recombinant STAT3 protein (STAT3(G127-I722)) (Homo sapiens, UniProt P40763) as the test system: O=C(N[C@H]1CN(C(=O)c2noc3c2CCCC3)CC[C@H]2CC[C@@H](C(=O)N3CCOCC3)N2C1=O)c1ccc2ccc(C(F)P(=O)(O)O)cc2c1 (some centres unmarked) < 5.00
